Sourced from PubChem BioAssay (NCI)

tested on: DU-145 prostate; test: NCI tumour cell line growth inhibition, 48 h
I'd be grateful if you could share measured TGI for these entries.
Give bare numbers, in µM.

substanceSmiles	propertyMeasured	observed
CCOC(=O)c1ccc2[nH]c(Cc3[nH]c4ccc(C(=O)OCC)cc4c3C)c(C)c2c1	TGI	17.5

What value of TGI on DU-145 prostate does CCN(CC)CCN1CCN=c2c3cc(OC)ccc3n3cnc4ccc1c2c43 have?
4.39

---

tested on: SF-539 CNS; assay: NCI tumour cell line growth inhibition, 48 h
propertyMeasured: TGI

// below: answered compounds
compound	TGI
CC1(C)CC2=NOS3=C2C(=NO3)C1c1ccccn1 (centres undefined)	> 100 µM
CC(=O)/C(=C/N1C(=O)CC(=O)NC1=S)C(=O)Nc1ccccc1C	> 100 µM
CCOC(=O)C(=O)Nc1ccc([N+](=O)[O-])cc1C#N	> 100 µM

Moving on to the next compound.
Could you share what TGI was measured for CC1=CC[C@@]2(C)[C@@H]([C@@H]1C)[C@H]1CC[C@@H]3[C@@]4(C)CC[C@H](O)C(C)(C)[C@@H]4CC[C@@]3(C)[C@]1(C)C[C@@H]2O , tested on SF-539 CNS?
> 55.7 µM
